# ASSAY_TARGET: UniProt P06730
# Sequence (P06730 whole entry): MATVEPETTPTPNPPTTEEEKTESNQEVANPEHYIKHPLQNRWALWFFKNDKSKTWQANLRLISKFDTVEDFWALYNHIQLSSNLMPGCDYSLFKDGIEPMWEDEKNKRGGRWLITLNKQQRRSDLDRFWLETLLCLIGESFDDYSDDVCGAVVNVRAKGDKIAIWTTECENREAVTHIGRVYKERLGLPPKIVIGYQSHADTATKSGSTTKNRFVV
# ASSAY_PROCEDURE: TR-FRET assay for competitive binding of cap analogs to eIF4E
# CONDITION_LABEL: N^7-alkylated GMP derivatives; competition with capped 7mGDP mRNA-biotin; single measurement unless footnoted as average; read-out: AC50
MEASURED_PROPERTY: AC50 (µM)

// known answers, use as guide
AC50 value, target or system UniProt P06730, for "CCc1ccc(-c2ccsc2)cc1" : 2.69

AC50 value, target or system UniProt P06730, for "CCc1ccc(-c2ccccc2)cc1" : 29

1: CCc1nc2ccccc2s1
2: CCc1ccc(-c2nc(C)no2)cc1
// compare measured AC50, left 1 , right 2 , return larger I would appreciate it if you answered with the label of your choice.
1

I: CCc1ccc(-c2cccs2)nc1
II: CCc1cc2ccccc2s1
III: CCc1ccc2nonc2c1
Please produce an ascending ranking of these compounds based on AC50. Reply: labels, ordered per the request.
I, III, II
(I: 5.91 µM, III: 23.7 µM, II: 63.2 µM)

// provenance: patent US10676499B2
